Recorded values, source ChEMBL document CHEMBL4385627.

# Assay Overview: Growth inhibition of BHK21 cells at 100 uM incubated for 48 hrs by SRB assay relative to control
# Type: cell-based, Mesocricetus auratus, BHK-21
# Condition Description: hamster, read-out: GI
Metric: inhibition at 48 h, 100 µM (%)
The response must be a number in % with no trailing unit.

Recorded inhibition at 48 h, 100 µM for Cc1cc(C)cc(-n2c(-c3cc4ccccc4oc3=O)cs/c2=N/NC(=O)c2cc3ccccc3oc2=O)c1 , please? 66.8

----------
# Assay Overview: Growth inhibition of BHK21 cells at 0.1 uM incubated for 48 hrs by SRB assay relative to control
# Format: cell-based, Mesocricetus auratus, BHK-21
# Condition Description: hamster, read-out: GI
Metric: inhibition at 48 h, 0.1 µM (%)
The response must be a number in % with no trailing unit.

Recorded inhibition at 48 h, 0.1 µM for Cc1cc(C)cc(-n2c(-c3cc4ccccc4oc3=O)cs/c2=N/NC(=O)c2cc3ccccc3oc2=O)c1 , please? 55.5

----------
# Assay Overview: Inhibition of calf ALR2 using DL-glyceraldehyde as substrate preincubated for 5 mins followed by NADPH addition and measured after 10 mins by spectrophotometric analysis
# Design: species or system Bos taurus
Metric: IC50

Worked examples follow.
Nc1cc(Cl)ccc1/C(=N/Nc1nc(-c2cc3ccccc3oc2=O)cs1)c1ccccc1	459 nM
C/C(=N\Nc1nc(-c2cc3ccccc3oc2=O)cs1)c1ccc(Br)cc1	110 nM
C/C(=N\Nc1nc(-c2cc3ccccc3oc2=O)cs1)c1ccccc1Br	160 nM

Recorded IC50 for C/C(=N\Nc1nc(-c2cc3ccccc3oc2=O)cs1)c1ccccc1 , please? 120 nM

----------
# Assay Overview: Inhibition of calf intestinal alkaline phosphatase using p-nitrophenyl phosphate as substrate preincubated for 10 mins followed by substrate addition and measured after 30 mins by spectrometry based assay
# Parameters: species or system Bos taurus
Metric: pIC50
# pIC50 is unitless: minus log10 of the molar concentration; print number only

Recorded pIC50 for Cc1ccc(-n2c(-c3cc4ccccc4oc3=O)cs/c2=N/NC(=O)c2cc3ccccc3oc2=O)c(C)c1 , please? 5.86

----------
# Assay Target: Cholinesterase (Homo sapiens)
# Sequence (P06276 whole entry): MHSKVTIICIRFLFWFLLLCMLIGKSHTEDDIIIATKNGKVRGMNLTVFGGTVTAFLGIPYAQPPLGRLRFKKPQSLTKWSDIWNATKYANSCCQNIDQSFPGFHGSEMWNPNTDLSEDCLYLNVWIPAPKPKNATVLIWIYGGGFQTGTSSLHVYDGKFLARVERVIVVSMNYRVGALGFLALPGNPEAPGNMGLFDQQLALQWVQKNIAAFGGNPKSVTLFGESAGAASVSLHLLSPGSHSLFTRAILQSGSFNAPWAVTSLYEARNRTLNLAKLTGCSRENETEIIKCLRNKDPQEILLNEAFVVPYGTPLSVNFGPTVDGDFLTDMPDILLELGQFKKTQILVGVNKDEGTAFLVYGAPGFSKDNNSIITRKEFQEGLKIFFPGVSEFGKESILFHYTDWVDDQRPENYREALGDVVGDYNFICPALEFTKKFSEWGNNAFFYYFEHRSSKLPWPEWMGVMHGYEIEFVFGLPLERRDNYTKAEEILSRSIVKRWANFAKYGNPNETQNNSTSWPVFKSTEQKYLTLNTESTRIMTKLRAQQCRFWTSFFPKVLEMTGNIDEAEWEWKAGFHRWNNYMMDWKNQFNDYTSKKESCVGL
# Assay Overview: Inhibition of human plasma BuChE using butyrylthiocholine iodide as substrate preincubated for 5 mins followed by substrate addition and measured at 2 mins interval by Ellman's method
Metric: IC50

Value wanted: IC50 (Cholinesterase (Homo sapiens)) of entry O=C(Cc1cc(=O)oc2cc(O)ccc12)NCCCCCCCNc1c2c(nc3ccccc13)CCCC2 63 to 63.5 nM

----------
# Assay Target: Acetylcholinesterase (Homo sapiens, UniProt P22303)
# Sequence (P22303 whole entry): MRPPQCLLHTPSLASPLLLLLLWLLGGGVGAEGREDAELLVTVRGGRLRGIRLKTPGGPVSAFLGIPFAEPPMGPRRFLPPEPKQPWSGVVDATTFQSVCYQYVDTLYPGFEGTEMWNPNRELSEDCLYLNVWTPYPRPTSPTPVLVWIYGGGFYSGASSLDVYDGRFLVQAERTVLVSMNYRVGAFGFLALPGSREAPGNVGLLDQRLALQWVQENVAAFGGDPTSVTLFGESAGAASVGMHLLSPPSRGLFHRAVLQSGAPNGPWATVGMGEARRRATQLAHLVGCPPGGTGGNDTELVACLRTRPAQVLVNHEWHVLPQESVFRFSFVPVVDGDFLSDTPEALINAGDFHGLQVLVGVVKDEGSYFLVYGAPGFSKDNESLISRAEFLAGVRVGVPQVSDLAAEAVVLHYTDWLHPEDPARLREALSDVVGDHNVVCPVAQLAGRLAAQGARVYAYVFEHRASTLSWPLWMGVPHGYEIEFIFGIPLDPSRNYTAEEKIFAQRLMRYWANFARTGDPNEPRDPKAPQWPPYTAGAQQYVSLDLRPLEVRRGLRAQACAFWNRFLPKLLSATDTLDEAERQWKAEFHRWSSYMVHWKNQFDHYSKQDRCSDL
# Assay Overview: Inhibition of human recombinant AchE using acetylthiocholine iodide as substrate preincubated for 5 mins followed by substrate addition and measured at 2 mins interval by Ellman's method
Metric: pIC50
# pIC50 is unitless: minus log10 of the molar concentration; print number only

Recorded pIC50 for O=C(Cc1cc(=O)oc2cc(O)ccc12)NCCCNCCNCCCNc1c2c(nc3ccccc13)CCCC2 , please? 7.42

----------
# Assay Overview: Inhibition of Saccharomyces cerevisiae alpha-glucosidase using p-nitrophenyl-alpha-D-glucopyranoside as substrate preincubated for 10 mins followed by substrate addition and measured after 30 mins by spectrophotometric analysis
Metric: IC50

O=C(N/N=C/c1cc(Cl)cc(Cl)c1O)c1nc(-c2cc3ccccc3oc2=O)cs1	6.24 µM

Next:
Recorded IC50 for O=C(N/N=C/c1cc(Cl)ccc1O)c1nc(-c2cc3ccccc3oc2=O)cs1 , please? 8.23 µM
